Data provenance: PubChem BioAssay (EPA / NIEHS)

Read-out: Pro-epidermal growth factor (Homo sapiens)
assay_overview: LTEA_HepaRG_EGF: Life Technologies and Expression Analysis (LTEA) Assay for Epidermal growth factor (EGF) using HepaRG (AID 2283489)
assay_conditions: mRNA level, 48 h; actives raise or lower the signal
Protocol: LTEA_HepaRG is a cell based, multiplexed-readout assay that uses HepaRG, a human liver cell line, with measurements taken at 48 hours after chemical dosing on a 96-well plate.LTEA_HepaRG_EGF is one of 102 assay component(s) measured in the LTEA HepaRG cell culture assay. It is a marker of Cell proliferation, survival, death.Data from the assay component LTEA_HepaRG_EGF was analyzed into 1 endpoint. […]
The source made the active and inactive calls. The calls were made as follows: active = hit-call score of the fitted dose curve at least 0.9, where 1 is the maximum; inactive = score below 0.9.
Possible outcomes: Y for active, N for inactive

[[record]]
compound = "CCOC(=O)O[C@H](C)OC(=O)c1ccc2c(c1)cc(C(=O)NC1CCN(C(C)C)CC1)n2Cc1cc(-c2ccc(Cl)s2)on1"
group = "N"

[[record]]
compound = "C[C@]12CC[C@@H]3c4ccc(O)cc4CC[C@H]3[C@@H]1CC[C@H]2O"
group = "N"

[[record]]
compound = "CCN(CC)C(=O)c1cc(S(=O)(=O)Cc2ccccc2)c(N2CCC(c3ccccc3)CC2)cc1N(CC)CCN(C)C"
group = "N"

[[record]]
compound = "CC(O)CC(C)(C)O (stereo unspecified)"
group = "N"

[[record]]
compound = "CC[C@@H]1C[C@H](N(Cc2cc(C(F)(F)F)cc(C(F)(F)F)c2)C(C)=O)c2cc(C(F)(F)F)ccc2N1C(=O)OC(C)C"
group = "N"

[[record]]
compound = "CCCCCCCC[Si](OCC)(OCC)OCC"
group = "N"

[[record]]
compound = "CCCCCCCCCCCCO"
group = "N"

[[record]]
compound = "CCO[Si](CCCNC(N)=O)(OCC)OCC"
group = "N"

[[record]]
compound = "Clc1ccccc1C(c1ccccc1)(c1ccccc1)n1ccnc1"
group = "Y"

[[record]]
compound = "NCc1cccc(C2CCN(C(=O)c3ccc(C#Cc4ccccc4F)o3)CC2)c1"
group = "N"

[[record]]
compound = "O=c1ccc2ccccc2o1"
group = "N"


###

subject_of_test: Glucocorticoid receptor (Homo sapiens)
assay_overview: ATG_GR_TRANS: Attagene TRANS-FACTORIAL HepG2 Assay for human Glucocorticoid Receptor (GR) (AID 2282978);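 also: activators score as hits since higher reporter transcript over DMSO is fitted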
assay_conditions: HepG2 Attagene TRANS GR reporter, mRNA transcription
Description: ATG_TRANS is a cell-based, multiplexed-readout assay that uses HepG2, a human liver cell line, with measurements taken at 24 hours after chemical dosing in a 24-well plate.ATG_GR_TRANS is one of 30 assay component(s) measured or calculated from the ATG_TRANS assay. […] This assay endpoint, ATG_GR_TRANS, was analyzed in the positive analysis fitting direction relative to DMSO as the negative control and baseline of activity. […]
Results filed as inconclusive are left out. Activity calls are given as the source filed them. How the source made its calls: active means hit-call score of the fitted dose curve at least 0.9, where 1 is the maximum; inconclusive means response in the unintended direction; inactive means score below 0.9.
Possible outcomes: 1 = active, 0 = inactive

[[record]]
compound = "CC(C)(c1cc(Br)c(O)c(Br)c1)c1cc(Br)c(O)c(Br)c1"
group = 0

[[record]]
compound = "Oc1ccc2ccccc2c1"
group = 0

[[record]]
compound = "CCCCOC(=O)c1ccc(O)cc1"
group = 0

[[record]]
compound = "CCCCCCCC[Si](OCC)(OCC)OCC"
group = 0

[[record]]
compound = "CC/C(=C(/CC)c1ccc(O)cc1)c1ccc(O)cc1"
group = 0

[[record]]
compound = "CCO[Si](CCCNC(N)=O)(OCC)OCC"
group = 0

[[record]]
compound = "Cc1cc2c(cc1C(F)(F)F)N(C(=O)Nc1ccc(Oc3cccnc3C)nc1)CC2"
group = 0

[[record]]
compound = "Cc1occc1C(=O)Nc1ccc(C(=O)N2CCC(F)(F)/C(=C\\C(=O)N3CCC(N4CCCCC4)CC3)c3ccccc32)cc1"
group = 0

[[record]]
compound = "CCN(Cc1cccnc1)C(=O)c1cccc(Cl)c1[C@]1(C)C(=O)N(Cc2ccc(OC)cc2OC)c2ccc(Cl)cc21"
group = 0

[[record]]
compound = "COc1ccc2cc(S(=O)(=O)N[C@H](CC(=O)N[C@H](Cc3ccc(CN4[C@H](C)CCC[C@@H]4C)cc3)C(=O)N(C)C(C)C)c3ccc4c(c3)OCO4)ccc2c1"
group = 0

[[record]]
compound = "CCN(CC)C(=O)c1cc(S(=O)(=O)Cc2ccccc2)c(N2CCC(c3ccccc3)CC2)cc1N(CC)CCN(C)C"
group = 0

[[record]]
compound = "CN1C(=O)N(c2ccccc2Br)Cc2cnc(Nc3ccc4c(c3)OCC(CO)O4)nc21 (stereo unspecified)"
group = 0

[[record]]
compound = "CC(C)(O)c1ccc(CNC(=O)c2cccnc2Oc2ccc3nonc3c2)cc1"
group = 1

[[record]]
compound = "CC(C)(C)c1csc(-c2cc3cc(OCc4ccccc4CC(=O)O)ccc3o2)n1"
group = 0

[[record]]
compound = "COc1cccc([C@H](O)C2CCN(CCc3ccc(F)cc3)CC2)c1OC"
group = 0

[[record]]
compound = "Clc1cc(Cl)c2c(c1)N=C1CCCCCN1C2"
group = 0

[[record]]
compound = "Cc1cn([C@H]2C[C@H](N=[N+]=[N-])[C@@H](CO)O2)c(=O)[nH]c1=O"
group = 0

[[record]]
compound = "O=c1c(-c2ccc(O)cc2)coc2cc(O)cc(O)c12"
group = 0

[[record]]
compound = "c1ccc(C[n+]2cccc3ccccc32)cc1"
group = 0

[[record]]
compound = "COCC(C)OCC(C)OCC(C)O (stereo unspecified)"
group = 0

[[record]]
compound = "C[C@]12CC[C@@H]3c4ccc(O)cc4CC[C@H]3[C@@H]1CC[C@H]2O"
group = 0

